System: HDAC
protocol: HDAC fluorimetric assay kit (AK-500, Biomol), HeLa nuclear extract
Format: biochemical
Provide the recorded IC50 for the entries that follow.

Examples with their reported IC50 follow.
C[C@@H](Nc1ncnc2[nH]c(-c3ccc(NC(=O)CCC(=O)NO)cc3)cc12)c1ccccc1 = > 10000 nM
C[C@@H](Nc1ncnc2[nH]c(-c3ccc(OCCNCCCCCCCC(=O)NO)cc3)cc12)c1ccccc1 = 100 to 1000 nM
C[C@@H](Nc1ncnc2[nH]c(-c3ccc(NC(=O)CCCC(=O)NO)cc3)cc12)c1ccccc1 = 100 to 1000 nM

# per-item lookup of IC50; items listed below
1. C[C@@H](Nc1ncnc2[nH]c(-c3ccc(CNCCCCCCC(=O)NO)cc3)cc12)c1ccccc1
2. C[C@@H](Nc1ncnc2[nH]c(-c3ccc(CN4CCN(CCC(=O)NO)CC4)cc3)cc12)c1ccccc1
3. C[C@@H](Nc1ncnc2[nH]c(-c3ccc(CN4CCN(CCOCCCCC(=O)NO)CC4)cc3)cc12)c1ccccc1
4. C[C@@H](Nc1ncnc2[nH]c(-c3ccc(C(=O)NCCNCCCCCCC(=O)NO)cc3)cc12)c1ccccc1
5. C[C@@H](Nc1ncnc2[nH]c(-c3ccc(CN4CCN(CCCCCC(=O)NO)CC4)cc3)cc12)c1ccc(F)cc1
6. C[C@@H](Nc1ncnc2c1cc(-c1ccc(N)cc1)n2CCCCCCC(=O)NO)c1ccccc1
7. C[C@@H](Nc1ncnc2[nH]c(-c3ccc(OCCCCCC(=O)NO)cc3)cc12)c1ccccc1

1. < 100 nM
2. > 10000 nM
3. 1000 to 10000 nM
4. < 100 nM
5. 100 to 1000 nM
6. < 100 nM
7. < 100 nM

Please give IC50 for each item listed below.
1. C[C@@H](Nc1ncnc2[nH]c(-c3ccc(C(=O)NO)cc3)cc12)c1ccc(F)cc1
2. C[C@@H](Nc1ncnc2[nH]c(-c3ccc(NCc4ccc(/C=C/C(=O)NO)cc4)cc3)cc12)c1ccccc1
3. C[C@@H](Nc1ncnc2[nH]c(-c3ccc(CN4CCN(CCOCCCCCC(=O)NO)CC4)cc3)cc12)c1ccccc1
4. C[C@@H](Nc1ncnc2[nH]c(-c3ccc(NC(=O)CCCCCCC(=O)NO)cc3)cc12)c1ccccc1
5. C[C@@H](Nc1ncnc2[nH]c(-c3ccc(OCCCNCCCCCC(=O)NO)cc3)cc12)c1ccccc1

1: 100 to 1000 nM; 2: 100 to 1000 nM; 3: < 100 nM; 4: < 100 nM; 5: 1000 to 10000 nM
